// data source = patent US7220753B2

Structures can show the parent of a compound that is named as a salt.
measurement_label: melting point

Record O=S(=O)(C[C@@H]1CCC2CN(c3ncccn3)CCN2C1)c1ccc(F)cc1 (some centres unmarked) . Reported melting point: 155 to 157 °C

Record Clc1nccc(N2CCN3C[C@H](COc4ccccc4)CC[C@H]3C2)n1 (racemic) . Reported melting point: 227 to 233 °C (dec.)

Record COc1cccc(N2CCN3C[C@H](COc4ccc(F)cc4)CCC3C2)n1 (some centres unmarked) . Reported melting point: 228 to 230 °C

Record CSc1nc(N2CCN3CC(COc4ccccc4)CCC3C2)ncc1F (centres unmarked) . Reported melting point: 192 to 198 °C

Record Fc1ccc2c(ccn2C[C@@H]2CC[C@H]3CN(c4ncccn4)CCN3C2)c1 (racemic) . Reported melting point: 70 to 72 °C

Record c1ccc(OC[C@@H]2CC[C@H]3CN(c4cnccn4)CCN3C2)cc1 (racemic) . Reported melting point: 217 to 219 °C

Record Clc1ccc(N2CCN3C[C@H](COc4ccccc4)CC[C@H]3C2)nn1 (racemic) . Reported melting point: > 265 °C (dec.)

Record `O=c1oc2ccccc2n1C[C@@H]1CC[C@H]2CN(c3ccc(Cl)cn3)CCN2C1` . Reported melting point: 247 to 248 °C

Record `Fc1ccc(OC[C@@H]2CC[C@H]3CN(c4ccccn4)CCN3C2)cc1` . Reported melting point: 261 to 263 °C

Record Fc1ccc(OC[C@@H]2CC[C@H]3CN(c4ccc(F)cn4)CCN3C2)cc1 (racemic) . Reported melting point: 214 to 215 °C

Record Fc1ccc(SC[C@@H]2CCC3CN(c4ncccn4)CCN3C2)cc1 (some centres unmarked) . Reported melting point: 99 to 101 °C

Record `Fc1cnc(N2CCN3C[C@H](CCc4ccccc4)CC[C@H]3C2)nc1` . Reported melting point: 250 to 252 °C

Record Clc1cncc(N2CCN3C[C@H](COc4ccccc4)CC[C@H]3C2)n1 (racemic) . Reported melting point: 247 °C (dec.)

Record c1ccc(OC[C@@H]2CC[C@H]3CN(c4ccncn4)CCN3C2)cc1 (racemic) . Reported melting point: > 265 °C (dec.)

Record `Fc1cnc(N2CCN3C[C@H](Cn4ccc5cc(F)ccc54)CC[C@H]3C2)nc1` . Reported melting point: 180 to 182 °C

Record CSc1nc(N2CCN3CC(COc4ccc(F)cc4)CCC3C2)ncc1F (centres unmarked) . Reported melting point: 201 to 210 °C

Record Fc1ccc(OC[C@@H]2CC[C@H]3CN(c4cccnn4)CCN3C2)cc1 (racemic) (as salt: sulfate) . Reported melting point: 246 to 250 °C

====

Field: melting point. Provide a value for each of the compounds that follow.

Record Fc1ccc(OC[C@@H]2CC[C@H]3CN(c4ncc(Cl)cc4Cl)CCN3C2)cc1 (racemic) [Example 15] . Reported melting point: 247 to 248 °C

Record Fc1ccc(OC[C@@H]2CCC3CN(c4ccccc4)CCN3C2)cc1 (stereo partly drawn) [Example 26] . Reported melting point: 247 to 252 °C

Record N#Cc1cc(F)ccc1N1CCN2C[C@H](COc3ccc(F)cc3)CC[C@H]2C1 (racemic) [Example 23] . Reported melting point: 235 to 240 °C

Record Fc1cnc(N2CCN3C[C@H](COc4ccccc4)CC[C@H]3C2)nc1 (racemic) [Example 5] . Reported melting point: 215 to 217 °C

Record Nc1cc(F)ccc1N1CCN2C[C@H](COc3ccc(F)cc3)CC[C@H]2C1 [Example 24] . Reported melting point: 144 to 149 °C

Record c1ccc(O[C@@H]2CC[C@H]3CN(c4ncccn4)CCN3C2)cc1 (racemic) . Reported melting point: 147 to 148 °C

Record Clc1ccc(N2CCN3C[C@H](COc4ccccc4)CC[C@H]3C2)nc1 (racemic) [Example 17] . Reported melting point: 218 to 224 °C

Record O=C1Cc2ccccc2N1C[C@@H]1CC[C@H]2CN(c3ncccn3)CCN2C1 [Example 44] . Reported melting point: 174 to 176 °C

Record Fc1ccc(OC[C@@H]2CC[C@H]3CN(c4ccc(Cl)nn4)CCN3C2)cc1 [Example 20] . Reported melting point: 265 to 270 °C
